# MEASURED_TARGET: Prolyl oligopeptidase (Homo sapiens, UniProt P48147)
# Sequence (P48147 whole entry): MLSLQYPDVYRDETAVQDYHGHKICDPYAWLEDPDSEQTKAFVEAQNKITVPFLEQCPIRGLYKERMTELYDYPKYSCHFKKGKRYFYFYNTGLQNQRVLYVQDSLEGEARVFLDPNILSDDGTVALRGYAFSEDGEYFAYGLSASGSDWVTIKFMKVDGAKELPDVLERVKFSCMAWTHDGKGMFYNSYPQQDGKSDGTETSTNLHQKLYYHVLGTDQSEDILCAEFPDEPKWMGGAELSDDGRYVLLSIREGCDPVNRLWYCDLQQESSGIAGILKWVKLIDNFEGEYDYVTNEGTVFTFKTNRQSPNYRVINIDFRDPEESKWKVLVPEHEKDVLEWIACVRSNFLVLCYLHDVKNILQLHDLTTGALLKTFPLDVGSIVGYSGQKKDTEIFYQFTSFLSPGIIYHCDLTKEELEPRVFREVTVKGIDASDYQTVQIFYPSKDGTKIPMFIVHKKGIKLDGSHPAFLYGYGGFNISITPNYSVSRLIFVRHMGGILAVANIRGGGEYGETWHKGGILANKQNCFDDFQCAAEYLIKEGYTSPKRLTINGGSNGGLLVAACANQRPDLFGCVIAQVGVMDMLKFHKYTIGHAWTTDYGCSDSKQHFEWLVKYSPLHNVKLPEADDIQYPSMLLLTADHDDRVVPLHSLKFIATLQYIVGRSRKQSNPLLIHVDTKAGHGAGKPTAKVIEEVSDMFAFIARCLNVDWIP
MEASURED_ENDPOINT: IC50 (µM)
Answers are plain numbers, in µM.

The following molecules have reported results that may help.
# MOLECULE, READOUT_UNITS, MEAS_VALUE
rows = [
    ("CCCNC(=O)c1ccc(OP(=O)(Oc2ccc(C(=O)NCCC)cc2)C2CCCN2C(=O)[C@@H]2CCCN2C(=O)OCc2ccccc2)cc1 (mixture of isomers) [10p]", "µM", 3.2),
    ("O=C(CNC(=O)c1ccccc1)Nc1ccc(OP(=O)(Oc2ccc(NC(=O)CNC(=O)c3ccccc3)cc2)C2CCCN2C(=O)[C@@H]2CCCN2C(=O)OCc2ccccc2)cc1 (mixture of isomers) [10h]", "µM", 12),
]

Let's switch to this molecule now.
Form field: reported IC50 of O=C1CC[C@@H](C(=O)Nc2ccc(OP(=O)(Oc3ccc(NC(=O)[C@@H]4CCC(=O)N4)cc3)C3CCCN3C(=O)[C@@H]3CCCN3C(=O)OCc3ccccc3)cc2)N1 (mixture of isomers) [10k]
9

----------
Would you mind telling me the reported IC50 of each entry?
# MEASURED_TARGET: DPP IV (Homo sapiens, UniProt P27487)
# Construct: DPP IV was purified from human seminal plasma as described previously; from tissue; host or cells: human seminal plasma
# Sequence (P27487 whole entry): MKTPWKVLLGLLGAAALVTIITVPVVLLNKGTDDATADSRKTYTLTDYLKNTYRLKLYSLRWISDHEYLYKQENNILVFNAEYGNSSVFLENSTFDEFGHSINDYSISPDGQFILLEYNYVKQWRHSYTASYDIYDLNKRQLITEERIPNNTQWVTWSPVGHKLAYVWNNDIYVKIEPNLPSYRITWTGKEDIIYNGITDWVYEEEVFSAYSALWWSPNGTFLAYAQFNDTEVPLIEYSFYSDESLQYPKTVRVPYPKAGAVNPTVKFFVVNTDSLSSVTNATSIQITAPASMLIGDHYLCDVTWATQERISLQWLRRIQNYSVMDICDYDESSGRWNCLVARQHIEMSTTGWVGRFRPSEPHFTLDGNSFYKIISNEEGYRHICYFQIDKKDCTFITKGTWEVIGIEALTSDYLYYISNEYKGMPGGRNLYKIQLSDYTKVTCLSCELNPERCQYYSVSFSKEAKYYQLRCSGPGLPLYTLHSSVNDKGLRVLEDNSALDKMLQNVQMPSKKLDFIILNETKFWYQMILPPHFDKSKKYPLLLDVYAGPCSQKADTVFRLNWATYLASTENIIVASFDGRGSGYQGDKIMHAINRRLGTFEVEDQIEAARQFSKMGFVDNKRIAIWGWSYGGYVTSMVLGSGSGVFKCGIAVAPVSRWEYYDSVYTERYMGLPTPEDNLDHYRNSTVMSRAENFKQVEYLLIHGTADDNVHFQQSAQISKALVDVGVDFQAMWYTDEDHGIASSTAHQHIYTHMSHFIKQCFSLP
# TEST_NAME: biochemical
# Type: biochemical
# TEST_SETTINGS: 15 min pre-incubation with DPP IV at 37° C.; average ± standard deviation
Structures can show the parent of a compound that is named as a salt.
Give bare numbers, in nM.

// worked examples, IC50 included
# MOLECULE, MEASURED_ENDPOINT, MEAS_VALUE
rows = [
    ("O=C1CC[C@@H](C(=O)Nc2ccc(OP(=O)(Oc3ccc(NC(=O)[C@@H]4CCC(=O)N4)cc3)C3CCCN3C(=O)[C@@H]3CCCN3)cc2)N1 (mixture of isomers) [11k, hydrochloride]", "IC50", 5000),
    ("NC(=O)Nc1cccc(OP(=O)(Oc2cccc(NC(N)=O)c2)C2CCCN2C(=O)[C@@H]2CCCN2)c1 (mixture of isomers) [11g, hydrochloride]", "IC50", 2300),
]

Report IC50 for C[C@H](N)C(=O)Nc1ccc(OP(=O)(Oc2ccc(NC(=O)[C@H](C)N)cc2)C2CCCN2C(=O)[C@@H]2CCCN2)cc1 (mixture of isomers) [11j, trihydrochloride] tested on DPP IV (Homo sapiens, UniProt P27487).
600

----------
# MEASURED_TARGET: DPP IV (Homo sapiens, UniProt P27487)
# Construct: DPP IV was purified from human seminal plasma as described previously; from tissue; host or cells: human seminal plasma
# TEST_NAME: biochemical
# Format: biochemical
# TEST_SETTINGS: 0.25 h, pH 8.3; read-out: kcalc (second order rate constant of inactivation)
Counter-ions that a name gives are not always drawn.
Label scheme for kinact/KI: lower than 300 M⁻¹ s⁻¹ is not satisfied, 300 M⁻¹ s⁻¹ and above is satisfied.

Recorded results for 3 compounds are shown here.
# COMPOUND, ASSIGNED_LABEL
measured = [
    ("COC(=O)C(Cc1ccc(OP(=O)(Oc2ccc(CC(NC(C)=O)C(=O)OC)cc2)C2CCCN2C(=O)C2CCCN2)cc1)NC(C)=O (centres unmarked) [11l, hydrochloride]", "satisfied"),
    ("COP(=O)(Oc1ccccc1-c1ccccc1O)C1CCCN1C(=O)[C@@H]1CCCN1 (mixture of isomers) [compound 18, hydrochloride]", "not satisfied"),
    ("O=C1CC[C@@H](C(=O)Nc2ccc(OP(=O)(Oc3ccc(NC(=O)[C@@H]4CCC(=O)N4)cc3)C3CCCN3C(=O)[C@@H]3CCCN3)cc2)N1 (mixture of isomers) [11k, hydrochloride]", "not satisfied"),
]

Threshold query (kinact/KI >= 300 M⁻¹ s⁻¹) on C[C@H](N)C(=O)Nc1ccc(OP(=O)(Oc2ccc(NC(=O)[C@H](C)N)cc2)C2CCCN2C(=O)[C@@H]2CCCN2)cc1 (mixture of isomers) [11j, trihydrochloride]
satisfied

Test whether the compound NC(=O)Nc1cccc(OP(=O)(Oc2cccc(NC(N)=O)c2)C2CCCN2C(=O)[C@@H]2CCCN2)c1 (mixture of isomers) [11g, hydrochloride] records kinact/KI of 300 M⁻¹ s⁻¹ or higher.
satisfied

----------
Below are molecules with their IC50 as measured on Prolyl oligopeptidase (Homo sapiens, UniProt P48147).
Answers are plain numbers, in µM.

Sample answers from the record:
# MOLECULE, READOUT_UNITS, IC50
rows = [
    ("CC(=O)Nc1ccc(OP(=O)(Oc2ccc(NC(C)=O)cc2)C2CCCN2C(=O)[C@@H]2CCCN2C(=O)OCc2ccccc2)cc1 (mixture of isomers) [10e]", "µM", 21),
    ("CS(=O)(=O)Nc1ccc(OP(=O)(Oc2ccc(NS(C)(=O)=O)cc2)C2CCCN2C(=O)[C@@H]2CCCN2C(=O)OCc2ccccc2)cc1 (mixture of isomers) [10f]", "µM", 10),
    ("O=C(CNC(=O)OCc1ccccc1)Nc1ccc(OP(=O)(Oc2ccc(NC(=O)CNC(=O)OCc3ccccc3)cc2)C2CCCN2C(=O)[C@@H]2CCCN2C(=O)OCc2ccccc2)cc1 (mixture of isomers) [10i]", "µM", 15),
]

// moving on: another record for IC50
Form field: IC50 recorded for COC(=O)CCNC(=O)c1ccc(OP(=O)(Oc2ccc(C(=O)NCCC(=O)OC)cc2)C2CCCN2C(=O)[C@@H]2CCCN2C(=O)OCc2ccccc2)cc1 (mixture of isomers) [10o] with Prolyl oligopeptidase (Homo sapiens, UniProt P48147) (enter value)
2.8

----------
# TEST_NAME: in vitro
# TEST_SETTINGS: human, plasma
Counter-ions that a name gives are not always drawn.
MEASURED_ENDPOINT: half-life at 1 mM (h)
One number for each entry, in h.

Take a look at these entries with their results.
# COMPOUND, half-life at 1 mM [h]
data = [
    ("COP(=O)(Oc1ccccc1-c1ccccc1O)C1CCCN1C(=O)[C@@H]1CCCN1 (mixture of isomers) [compound 18, hydrochloride]", 2.33),
    ("CCOC(=O)CNC(=O)c1ccc(OP(=O)(Oc2ccc(C(=O)NCC(=O)OCC)cc2)C2CCCN2C(=O)[C@@H]2CCCN2)cc1 (mixture of isomers) [11n]", 0.583),
]

Report half-life at 1 mM for O=C1CC[C@@H](C(=O)Nc2ccc(OP(=O)(Oc3ccc(NC(=O)[C@@H]4CCC(=O)N4)cc3)C3CCCN3C(=O)[C@@H]3CCCN3)cc2)N1 (mixture of isomers) [11k, hydrochloride] please.
2.83

----------
# TEST_NAME: in vitro
# TEST_SETTINGS: human, plasma
Structures can show the parent of a compound that is named as a salt.
MEASURED_ENDPOINT: half-life at 1 mM (h)
Answers are plain numbers, in h.

Examples from the recorded data:
# MOLECULE, READOUT_UNITS, half-life at 1 mM
measured = [
    ("CCCNC(=O)c1ccc(OP(=O)(Oc2ccc(C(=O)NCCC)cc2)C2CCCN2C(=O)[C@@H]2CCCN2)cc1.Cl (mixture of isomers) [11p]", "h", 0.2),
    ("CC(=O)Nc1cccc(OP(=O)(Oc2cccc(NC(C)=O)c2)C2CCCN2C(=O)[C@@H]2CCCN2)c1.Cl (mixture of isomers) [11d]", "h", 3.67),
    ("CS(=O)(=O)Nc1ccc(OP(=O)(Oc2ccc(NS(C)(=O)=O)cc2)C2CCCN2C(=O)[C@@H]2CCCN2)cc1.Cl (mixture of isomers) [11f]", "h", 2.5),
    ("Cl.O=C(CNC(=O)c1ccccc1)Nc1ccc(OP(=O)(Oc2ccc(NC(=O)CNC(=O)c3ccccc3)cc2)C2CCCN2C(=O)[C@@H]2CCCN2)cc1 (mixture of isomers) [11h]", "h", 1.55),
    ("COC(=O)C(Cc1ccc(OP(=O)(Oc2ccc(CC(NC(C)=O)C(=O)OC)cc2)C2CCCN2C(=O)C2CCCN2)cc1)NC(C)=O (centres unmarked) [11l, hydrochloride]", "h", 3.17),
    ("Cl.O=C([C@@H]1CCCN1)N1CCC[C@H]1P(=O)(Oc1ccccc1)Oc1ccccc1 [11a (R)]", "h", 5),
    ("COC(=O)CCNC(=O)c1ccc(OP(=O)(Oc2ccc(C(=O)NCCC(=O)OC)cc2)C2CCCN2C(=O)[C@@H]2CCCN2)cc1.Cl (mixture of isomers) [11o]", "h", 0.433),
    ("C[C@H](N)C(=O)Nc1ccc(OP(=O)(Oc2ccc(NC(=O)[C@H](C)N)cc2)C2CCCN2C(=O)[C@@H]2CCCN2)cc1 (mixture of isomers) [11j, trihydrochloride]", "h", 0.133),
    ("Cl.Cl.Cl.NCC(=O)Nc1ccc(OP(=O)(Oc2ccc(NC(=O)CN)cc2)C2CCCN2C(=O)[C@@H]2CCCN2)cc1 (mixture of isomers) [11i]", "h", 0.467),
    ("O=C([C@@H]1CCCN1)N1CCCC1P(=O)(Oc1ccccc1)Oc1ccccc1 (mixture of isomers)", "h", 4.17),
]

# half-life at 1 mM lookup, item NC(=O)Nc1cccc(OP(=O)(Oc2cccc(NC(N)=O)c2)C2CCCN2C(=O)[C@@H]2CCCN2)c1 (mixture of isomers) [11g, hydrochloride]
3.5
